Assay: soluble on expression in E. coli; label from the status in PepcDB or PDB records
Recorded endpoint: soluble on expression in E. coli

Chain sequence	Recorded endpoint	Value
SLQCLRFAGAATHPAQAPCMPGPACEPVETFLKTCQAPGSEPTGAASLRAKYLPPSTASIRVSAGLLRAALEDSHSGFHLCSATLRWLLAENAAVDVVRAQTLSSIQGIAPDGTDVNLTVHEVAVTDLSPAGPIQAVEIQVESSSLANMCRAHHAIIRRIQTMVTEQAALGSSPPDLRMQYLQQIHANHQELLREVQALRDQLCTEDELSSCSTAQKLLHIYKQLRNPSLVLL	soluble on expression in E. coli	not soluble
MLTRLNRSFVQAARSMYIQVQETPNPLSLKFLPGQQLLPDASKTYDFSSAATAKQSPLAIKLLRVDGVKRVFFGEDFVTVTKSDETVDWALLRPEIFSTIADHIQTGKPVINEAATVSDQVEEDDEVVMMIKEILETRIRPMVQEDGGDITYVGFDDGVVKLKMQGSCTGCPSSGVTLKNGIENMLTFYVPEVKEVIEVKDESDDLVEQELKKFEQSKGIKD	soluble on expression in E. coli	not soluble

###

Experiment: soluble on expression in E. coli; label from the status in PepcDB or PDB records
Recorded endpoint: soluble on expression in E. coli

Answered cases to consult:
Chain sequence	soluble on expression in E. coli
DIISVALKRHSTKAFDASKKLTAEEAEKIKTLLQYSPSSTNSQPWHFIVASTEEGKARVAKSAAGTYVFNERKMLDASHVVVFCAKTAMDDAWLERVVDQEEADGRFNTPEAKAANHKGRTYFADMHRVDLKDDDQWMAKQVYLNVGNFLLGVGAMGLDAVPIEGFDAAILDEEFGLKEKGFTSLVVVPVGHHSVEDFNATLPKSRLPLSTIVTEC	soluble
MIVLGIESSCDETGVGIIDLADDGTMTIVGDAVASSMEQHARFGGVVPEIASRAHLESMIPVMKEALAQAGVERPDAVAATVGPGLAGALLVGASAAKAYAAAWGVPFYGVNHLGGHVAVANLEGEELPHSIALLVSGGHTQILEVQAVGKPMRELGSTLDDAAGEAYDKVARLLGLGYPGGPVVDKLAARGNRKAIRFPRGLSRADDLRGEHRYDFSFSGVKTSVARYVESAEREGRVISVEDVCASFQEAVVDVLTSKAIMACKDTGASVLLLGGGVAANSRLRELAAARCQSASIELRVPSFKLCTDNGVMIAAVASQLIHEGAQPSGLSVGTDTSLEVEIPLVHSL	not soluble
MERLSPVFATSKSSNMEVEHWMTSLKEVEKVLDSVEPKLTSSGTKWRVVAQHIKDICSDLNQIFNKEDPRYEVVQAGASAAHDFDVRYLDIHKVRTPHEPLEMRHSKGRKHGREIARLLEKIQKYRQEIEEIKKEYKETDKYRERYDHYKVKLDNLEKKNKDQERIERNQQKFKDAEAAYSSVCADLIQKMETVWKKHVSIFAEAASAVWSTQLQYAKALEAAANPIVPYLQQEEQEEEEEEEAASGTQGRVAEKAYHTNEEKVENSFQKNSAIPPSFRTASEQLTEQSKNINNAKNTSETSPAEDIEA	soluble
MNLVELGSKTAKDGFKNEKDIADRFENWKENSEAQDWLVTMGHNLDEIKSVKAVVLSGYKSDINVQVLVFYKDALDIHNIQVKLVSNKRGFNQIDKHWLAHYQEMWKFDDNLLRILRHFTGELPPYHSNTKDKRRMFMTEFSQEEQNIVLNWLEKNRVLVLTDILRGRGDFAAEWVLVAQKVSNNARWILRNINEVLQHYGSGDISLSPRGSINFGRVTIQRKGGDNGRETANMLQFKIDPTELFDI	soluble
MNYRNKAFLKYEEDYFIERIIKALKDYEEIIIISNNPEEYKEFGLKVFKDIYPSQGPLSGIHSALNHIKNDYCLVVACDMPFINKDVVNYLGNIKEDYEILIPKFQERLQPLCAIYKKSCKDIMEKELINNSNKLIKTCFKFSMKVVEEFPFIEKVHKKEIKNFYNINTVDEYEDLIKKKEILEHHHHHH	not soluble

Alright, here's another sequence for you.
Problem: Endpoint output: soluble on expression in E. coli of MILTEQEKAEVEANRRRYEQHKALGQQQAPKALPPPTPRDGAPIAPESIIHRETVPGGWYYVTKLGRGEAVRIINTSGTSCVSIQAWNALDPSERLNHADTIKVQWAASLRKGRVILSDMGRALLSIIEDTSGAHDTMVGGSNAATNAERYGVGSFRNARDNFVLAAGKLGLDRRDVHPSIALFAPVAVDSQGRFEWHGERRHKGDFVDLRAELDLLIAVSNCPHPLDPSPSYAPGDIELIRYQAPQPASDDLCRTVSLEAKRAFENNAFYLAGAAGRALEHHHHHH . Value?
Result: soluble
